- assayed-target: GalNAc(b1-3)Gal(a1-6)Gal(b1-4)Glc
- test-details: glycan array binding signal (z-score within array); higher = stronger binding
- details: glycan notation: IUPAC condensed, linker removed
This excerpt belongs to a sample that is enriched for the strongest signals.
readout: glycan array binding signal (z-score)

EULS2 M1 (Oryza sativa) (protein) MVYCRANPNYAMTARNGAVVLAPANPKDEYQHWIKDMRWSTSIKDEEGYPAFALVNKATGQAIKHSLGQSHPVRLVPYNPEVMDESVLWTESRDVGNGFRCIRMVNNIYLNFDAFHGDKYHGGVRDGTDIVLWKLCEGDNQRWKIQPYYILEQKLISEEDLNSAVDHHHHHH; 2.84
EULS2 M2 (Oryza sativa) (protein) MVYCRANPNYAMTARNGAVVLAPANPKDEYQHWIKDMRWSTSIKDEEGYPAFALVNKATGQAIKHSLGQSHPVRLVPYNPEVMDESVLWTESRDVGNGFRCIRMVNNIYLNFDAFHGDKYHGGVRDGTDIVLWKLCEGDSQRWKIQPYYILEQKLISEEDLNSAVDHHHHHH; 0.855
Gal 3 (Homo sapiens), P17931 (protein) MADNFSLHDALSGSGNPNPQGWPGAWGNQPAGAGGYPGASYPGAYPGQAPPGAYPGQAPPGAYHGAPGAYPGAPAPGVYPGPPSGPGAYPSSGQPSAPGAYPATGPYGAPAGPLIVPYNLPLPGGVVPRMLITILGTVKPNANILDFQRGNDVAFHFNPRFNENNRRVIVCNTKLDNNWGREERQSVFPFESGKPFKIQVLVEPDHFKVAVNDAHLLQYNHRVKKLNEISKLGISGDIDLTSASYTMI; -0.388
